src = patent US20230287082A1

Each entry below lists one item and its recorded KD improvement compared to ΔB7-H6 wt value.
target: human NKp30 (human) (UniProt O14931); assay: BLI, ratio to ΔB7-H6_wt
Sequence (O14931 19-135 limits assumed): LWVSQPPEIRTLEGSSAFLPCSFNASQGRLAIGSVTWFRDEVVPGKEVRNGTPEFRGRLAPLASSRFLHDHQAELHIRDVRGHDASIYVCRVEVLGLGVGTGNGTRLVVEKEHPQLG
Lab book: enter the figure in fold, no units written.

Recorded KD improvement compared to ΔB7-H6 wt, per entry:
ΔB7-H6_S2#7-SEED-PGLALA (bispecific antibody, part only; not given: SEED Fc chains and hu225 Fab, part only) chain, part: DLKVEMMAGGTQITPLNDNVTIFCNIFYSQPLNITSMGITWFWKSLTFDKEVKVFEFYGDHQEAFRPGAIVSPWRLKSGDASLRLPGIQLEEAGEYRCEVIVTPYKAQGTVQLEVVTSPAS = 2.1
ΔB7-H6_S3#12-SEED-PGLALA (bispecific antibody, part only; not given: SEED Fc chains and hu225 Fab, part only) chain, part: DLKVEMMAGGTQITPLNDNVTIFCNIFYSQPLNITEMGITWFWKSLTFDKEVKVFEFFGDHQEAFRPGAIVSPWRLKSGDASLRLPGIQLEEAGEYRCEVVVTPYKAQGTVQLEVVASPAS = 3.2
ΔB7-H6_S3#8-SEED-PGLALA (bispecific antibody, part only; not given: SEED Fc chains and hu225 EGFR Fab, part only) chain, part: DLKVEMMAGGTQITPLNDNVTIFCNIFYSQPLNITHMGITWFWKSLTFDKEVKVFEFWGDHQEAFRPGAIVSPWRLKSGDASLRLPGIQLEEAGEYRCEVIVTPLKAQGTVQLEVVASPAS = 5.1

Ask | Reported KD improvement compared to ΔB7-H6 wt for ΔB7-H6_S2#13-SEED-PGLALA (bispecific antibody, part only; not given: SEED Fc chains and hu225 Fab, part only) chain, part: DLKVEMMAGGTQITPLNDNVTIFCNIFYSQPLNITSMGITWFWKSLTFDKEVKVFEFWGDHQEAFRPGAIVSPWRLKSGDASLRLPGIQLEEAGEYRCEVVVTPYKAQGTVQLEVVASPAS : what is it?
Reply | 2

Ask | Repeat for the following binder: ΔB7-H6_S3#29-SEED-PGLALA (bispecific antibody, part only; not given: SEED Fc chains and hu225 EGFR Fab, part only) chain, part: DLKVEMMAGGTQITPLNDNVTIFCNIFYSQPLNITVMGITWFWKSLTFDKEVKVFEFWGDHQEAFRPGAIVSPWRLKSGDASLRLPGIQLEEAGEYRCEVIVTPYKAQGTVQLEVVASPAS
Reply | 16.5

Ask | Repeat for the following binder: ΔB7-H6_S3#26-SEED-PGLALA (bispecific antibody, part only; not given: SEED Fc chains and hu225 Fab, part only) chain, part: DLKVEMMAGGTQITPLNDNVTIFCNIFYSQPLNITTMGITWFWKSLTFDKEVKVFEFWDDHQEAFRPGAIVSPWRLKSGDASLRLPGIQLEEAGEYRCEVVVTPYKAQGTVQLEVVASPAS
Reply | 3.6

Ask | Repeat for the following binder: ΔB7-H6_S3#17-SEED-PGLALA (bispecific antibody, part only; not given: SEED Fc chains and hu225 EGFR Fab, part only) chain, part: DLKVEMMAGGTQITPLNDNVTIFCNIFYSQPLNITSMGITWFWKSLTFDKEVKVFEFYGDHQEAFRPGAIVSPWRLKSGDASLRLPGIQLEEAGEYRCEVFVTPLKAQGTVQLEVVASPAS
Reply | 6.9

Ask | Repeat for the following binder: ΔB7-H6_S3#10-SEED-PGLALA (bispecific antibody, part only; not given: SEED Fc chains and hu225 Fab, part only) chain, part: DLKVEMMAGGTQITPLNDNVTIFCNIFYSQPLNITSMGITWFWKSLTFDKEVKVFEFYGDHQEAFRPGAIVSPWRLKSGDASLRLPGIQLEEAGEYRCEVFVTPYKAQGTVQLEVVASPAS
Reply | 2.8
